As an illustration, consider measured log10(Ki) for compounds on hCA I (Homo sapiens, UniProt P00915).
Sequence (P00915 whole entry): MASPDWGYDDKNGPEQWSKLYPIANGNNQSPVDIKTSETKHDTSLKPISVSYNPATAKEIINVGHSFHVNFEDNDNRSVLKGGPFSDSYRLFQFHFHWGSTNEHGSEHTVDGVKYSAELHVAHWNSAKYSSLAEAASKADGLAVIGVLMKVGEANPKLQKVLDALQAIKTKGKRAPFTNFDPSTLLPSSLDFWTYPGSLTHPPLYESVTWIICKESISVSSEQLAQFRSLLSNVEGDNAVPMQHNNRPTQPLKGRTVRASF
Note the log scale: values are log10 of Ki expressed in nM.

Item CC(=O)O[C@@H]1C(=O)N(C2Cc3ccccc3C2)[C@@H]1c1ccc(F)cc1 (relative stereo) has what recorded log10(Ki)?
-0.03

Requested field: log10(Ki). Item: CC(=O)O[C@@H]1C(=O)N(C2Cc3ccccc3C2)[C@@H]1c1ccccc1[N+](=O)[O-] (relative stereo)
0.04

Item CC(=O)O[C@@H]1C(=O)N(C2Cc3ccccc3C2)[C@@H]1c1cccc(C)c1 (relative stereo) has what recorded log10(Ki)?
0.17

Would you mind telling me what log10(Ki) value was observed for CC(=O)O[C@@H]1C(=O)N(C2Cc3ccccc3C2)[C@@H]1c1cccc(Cl)c1 (relative stereo) ?
0.80

Quick check: log10(Ki) of CC(=O)O[C@@H]1C(=O)N(C2Cc3ccccc3C2)[C@@H]1c1ccccc1Br (relative stereo) ?
-0.04

Which log10(Ki) value belongs to CC(=O)O[C@@H]1C(=O)N(C2Cc3ccccc3C2)[C@@H]1c1ccccc1 (relative stereo) ?
-0.36

For CC(=O)O[C@@H]1C(=O)N(C2Cc3ccccc3C2)[C@@H]1c1ccc(C)cc1 (relative stereo) , what is its reported log10(Ki)?
0.18

Data request, read-out log10(Ki), for CC(=O)OC1C(=O)N(C2Cc3ccccc3C2)C1c1ccc(Br)cc1 (centres unmarked)
-0.01

I am curious: what log10(Ki) value has been reported for CC(=O)O[C@@H]1C(=O)N(C2Cc3ccccc3C2)[C@@H]1c1ccc(Cl)c(Cl)c1 (relative stereo) ?
0.06

Return reported log10(Ki); argument: CC(=O)O[C@@H]1C(=O)N(C2Cc3ccccc3C2)[C@@H]1c1cccc(Br)c1 (relative stereo)
-0.46

What measured log10(Ki) goes with COc1cccc([C@@H]2[C@H](OC(C)=O)C(=O)N2C2Cc3ccccc3C2)c1 (relative stereo) ?
0.15
